Reference source: ChEMBL document CHEMBL1201862

- Tested on: HT-29
- METHOD_SUMMARY: NCI tumour cell line growth inhibition, 48 h
Active and inactive are the calls of the source. Rule as the data show it: active = GI50 up to about 1.1 µM and inactive = higher.
# GI50 annotations

Reference set (4 entries):
[[record]]
molecular_string = "Cc1ccsc1C(=S)Nc1ccc(Cl)c(C(=O)OC(C(C)C)C(C)C)c1"
study_system = "HT-29"
reported = "17.4 µM (inactive)"

[[record]]
molecular_string = "COc1ccc(-c2nc(N)c(C#N)c3c2CCS(=O)(=O)c2ccc(C)cc2-3)cc1OC"
study_system = "HT-29"
reported = "30.1 µM (inactive)"

[[record]]
molecular_string = "C=CCSC1=N/C(=C\\c2cccs2)C(=O)N1CC=C"
study_system = "HT-29"
reported = "32.8 µM (inactive)"

[[record]]
molecular_string = "Cc1nn2c3c(nnc2c1C#N)C(=O)NN=C(N)S3"
study_system = "HT-29"
reported = "> 100 µM (inactive)"


Query: GI50; subject: c1csc(-c2cc(-c3ccsc3)cs2)c1 41.4 µM (inactive)

----------
- Test system: NCI-H460
- METHOD_SUMMARY: NCI tumour cell line growth inhibition, 48 h
Calls of active or inactive are those of the source. No stated cut-off is given here; in the data, active = GI50 up to about 1.1 µM and inactive = higher.
Pick one and only one: active, inactive

Look over these answered cases.
[[record]]
molecule = "CC1=C(c2nc3ccccc3s2)C(=O)OC1(C)C"
answer_label = "inactive"

[[record]]
molecule = "CCOC(=O)c1cnc2[nH]ccn2c1=O"
answer_label = "inactive"

[[record]]
molecule = "O=C(c1ccccc1)C1(Br)S(=O)(=O)OCCOS1(=O)=O"
answer_label = "inactive"

[[record]]
molecule = "CCOC(=O)N1CCC(=O)C(CNC23CC4CC(CC(C4)C2)C3)C1 (stereo unspecified)"
answer_label = "inactive"

[[record]]
molecule = "Ic1ccc2c(c1)N(c1ccccc1)c1cc([N-]c3ccc4nc5ccc(I)cc5[n+](-c5ccccc5)c4c3)ccc1N2"
answer_label = "inactive"


Test call for this molecule, please: O=C(NCCNCCO)c1cccc2ccc(-c3ccccc3)nc12 inactive

What did the test return for COc1cccc2cc(C(=O)Nc3ccccn3)c(=N)oc12 ? inactive

Would you mind telling me which call this test gave CC(=O)CCC(=O)C(=[N+]=[N-])S(=O)(=O)c1ccccc1 ? inactive

What was the test verdict on CC(C)[S+]1C2=C(CC(C)(C)CC2=O)[N-]c2ccccc21 (stereo unspecified) ? inactive

Tell me the assay call for O=C(CCc1nnc(S)[nH]1)NC12CC3CC(CC(C3)C1)C2 please. inactive

Outcome logged for Cc1cc([N+](=O)[O-])ccc1Sc1c2ccccc2nc2cc(Cl)ccc12 in this assay: inactive

For this molecule, state the assay outcome: COC(=O)c1ccccc1/C=C1/Cc2cccc(C)c2C1=O inactive

Recorded test call requested for Nc1ccc2c3[nH]c4cc(N)ccc4cc-3nc2c1 active

Kindly provide the recorded test outcome for the following molecule: O=C1/C(=C/c2ccccc2Cl)COc2ccccc21 inactive

Hello, I am checking results. What call was entered for CCCN1CCC(=O)N(CCC(F)(F)C(F)(F)C(F)(F)C(F)(F)C(F)(F)C(F)(F)F)C1=S ? inactive

// return assay outcome for OC1OCC(COc2cc(Cl)c(Cl)cc2Cl)OC1O (stereo unspecified) inactive

----------
- Tested on: Hs-578T
- METHOD_SUMMARY: NCI tumour cell line growth inhibition, 48 h
The source made the active and inactive calls. Rule as the data show it: active = GI50 up to about 1.1 µM and inactive = higher.
Output constraint: value belongs to y (active), n (inactive)

Worked set:
[[record]]
compound = "CC(C)C1C(=O)N2CCCC2C2(O)OC(NC(=O)C3C=C4c5cccc6[nH]cc(c56)CC4N(C)C3)(C(C)C)C(=O)N12 (stereo not given)"
answer_label = "n"

[[record]]
compound = "COC12C=CC(CC1)C(C)(C)C2OS(C)(=O)=O (stereo not given)"
answer_label = "n"

[[record]]
compound = "CCC(=O)Nc1cccc(/N=C/c2ccc(OC(=O)/C=C\\c3ccccc3)cc2)c1"
answer_label = "n"

[[record]]
compound = "Clc1ccccc1-c1nc(-c2ccncc2)no1 [PIFEXOLE]"
answer_label = "n"


Dear all, I need the recorded test outcome for COc1ccc(N2NC(c3ccccc3)(c3ccccc3)C(C)C2=O)cc1 (stereo not given) , thank you. n

Field: outcome | Entry: COc1cc2oc(-c3ccc(O)cc3)cc(=O)c2c(OC)c1O n

Please share the test call associated with COc1ccc(OC)c(C[P+](c2ccccc2)(c2ccccc2)c2ccccc2)c1 . n

Outcome? CCOC(=O)C(NC(=O)c1cccc(Cl)c1)(N1CCN(c2cc3c(cc2F)c(=O)c(C(=O)O)cn3C2CC2)CC1)C(F)(F)F (stereo not given) n

Dear all, I need the recorded test outcome for CCN(CC)CCn1c(=O)c2c(C)c3oc4ccccc4oc3c(C)c2c1=O , thank you. n

Hi, do you know how Nc1ccc2c3[nH]c4cc(N)ccc4cc-3nc2c1 came out in this test? y

----------
- System: HOP-62
- METHOD_SUMMARY: NCI tumour cell line growth inhibition, 48 h
Activity calls are given as the source filed them. Cut-off read from the data, not from the text of the source: active = GI50 up to about 1.1 µM and inactive = higher.
API: response.call in 1.0 = active, 0.0 = inactive

Below, 5 molecules whose answers are already recorded.
[[record]]
molecule = "Cn1c2ccccc2n2c(N=O)c(-c3ccccc3)nc12"
answer_label = 0.0

[[record]]
molecule = "CCOC(=O)C1(CC(=O)O)CCCC1=O (stereo not drawn)"
answer_label = 0.0

[[record]]
molecule = "C=CCCCC12CCCc3cccc(c31)NC2=O (stereo not drawn)"
answer_label = 0.0

[[record]]
molecule = "CC(=O)NC1C(OCC(=O)NC(C)C(=O)NC(CCC(=O)NCCCCCNc2ccc([N+](=O)[O-])c3[nH]c4ccccc4c(=O)c23)C(N)=O)C(O)C(CO)OC1(C)OCc1ccccc1 (stereo not drawn)"
answer_label = 0.0

[[record]]
molecule = "COc1ccc(/C=C2\\SC(c3ccc(OC)cc3)N(NC(=O)Cc3ccccc3)C2=O)cc1 (stereo not drawn)"
answer_label = 0.0


Called result for COc1cc2ccc(C(C)NCC#N)cc2cc1OC (stereo not drawn) 0.0

Recorded call for CCN(CC)c1ccc(C(=C2C=CC(=[N+](CC)CC)C=C2)c2ccccc2)cc1 ? 1.0

Entry Cc1n[nH]c(=S)n(C)c1=S : call = ? 0.0

----------
- System: M14
- METHOD_SUMMARY: NCI tumour cell line growth inhibition, 48 h
The source made the active and inactive calls. Rule as the data show it: active = GI50 up to about 1.1 µM and inactive = higher.
OBSERVED_PROPERTY: GI50

[[record]]
molecule = "COc1cc(CC2CCc3nc(N)nc(N)c3C2)cc(OC)c1OC (centres undefined)"
observed_property = "GI50"
reported = "0.195 µM (active)"

[[record]]
molecule = "C[Si](C)(C)C1=C([Si](C)(C)C)C(Cl)(Cl)C1=O"
observed_property = "GI50"
reported = "2.65 µM (inactive)"


Value lookup for GI50; key = NC(=O)C1CCCN1C(=O)N(CCCl)N=O (centres undefined) > 100 µM (inactive)

Any idea what its GI50 is? The molecule is CC12CCC(C(=O)n3c1nc1ccccc13)C(C)(C)O2 (centres undefined) > 100 µM (inactive)

----------
- Test system: K562
- METHOD_SUMMARY: NCI tumour cell line growth inhibition, 48 h
Activity calls are given as the source filed them. Cut-off read from the data, not from the text of the source: active = GI50 up to about 1.1 µM and inactive = higher.
Tick one outcome: Yes = active, No = inactive

[[record]]
compound = "Cc1cc([N+](=O)[O-])ccc1Sc1c2ccccc2nc2cc(Cl)ccc12"
answer_label = "No"

[[record]]
compound = "CSc1ncnc2c1ncn2CC(=O)C1CCC2C3CCC4=CC(=O)CCC4(C)C3CCC12C (configuration not stated)"
answer_label = "No"

[[record]]
compound = "CC(C)C(Nc1ncnc2nc[nH]c12)C(=O)O (configuration not stated)"
answer_label = "No"

[[record]]
compound = "CCOC(=O)/N=c1\\ss/c(=N\\C(=S)N(C)C)n1-c1ccccc1"
answer_label = "No"


Below: the item to evaluate.
Could you kindly confirm the outcome this assay logged for C=CCSC1=N/C(=C\c2cccs2)C(=O)N1CC=C ? No

----------
Listed next: entries and their corresponding GI50.
- Tested on: A498
- METHOD_SUMMARY: NCI tumour cell line growth inhibition, 48 h
The source made the active and inactive calls. Rule as the data show it: active = GI50 up to about 1.1 µM and inactive = higher.

[[record]]
compound = "CC1(C)OC(=O)C(=C2CCC(C(=O)Nc3cccc(C(F)(F)F)c3)N2)C(=O)O1 (stereo not drawn)"
reported = "66.1 µM (inactive)"

[[record]]
compound = "O=C(NCCc1ccccc1)c1c(O)nc2ccccc2c1O"
reported = "> 100 µM (inactive)"


Consider now this further compound.
Recorded GI50 for CC(=O)Oc1ccc(/C=C/C(=O)OCCCOC(=O)/C=C/c2ccc(OC(C)=O)c(OC(C)=O)c2)cc1OC(C)=O with A498, please? > 100 µM (inactive)

----------
- Tested on: MDA-N
- METHOD_SUMMARY: NCI tumour cell line growth inhibition, 48 h
The source made the active and inactive calls. Rule as the data show it: active = GI50 up to about 1.1 µM and inactive = higher. Non-standard residues stand in square brackets, D forms with d. Residues, ends and D or L forms follow the SMILES beside them. ξ: configuration not given here. *: point of attachment. ξF = NC(Cc1ccccc1)C(=O)O; Cbz = O=C(OCc1ccccc1)*; Aib = CC(C)(N)C(=O)O
Below, each entry is listed with its recorded GI50.

Consider the reported GI50 for these compounds:
[[record]]
compound = "CC(C)(CN1CCCCC1)C(=O)/C=C/c1ccc(/C=C/C(=O)C(C)(C)CN2CCCCC2)cc1"
study_system = "MDA-N"
reported = "0.177 µM (active)"

[[record]]
compound = "CCOC(=O)CNC(=O)C(Cc1ccccc1)NC(=O)C(C)(C)NC(=O)OCc1ccccc1 (stereo unspecified) (Cbz-[Aib]-[ξF]-Gly-OEt)"
study_system = "MDA-N"
reported = "> 100 µM (inactive)"

[[record]]
compound = "COc1ccc(OC(=O)N2C/C(=C\\c3ccccc3)C(=O)/C(=C/c3ccccc3)C2)cc1"
study_system = "MDA-N"
reported = "1.76 µM (inactive)"

[[record]]
compound = "COCN1C(=O)[C@@H]2CCCN2C(=O)c2cc(N)ccc21"
study_system = "MDA-N"
reported = "> 100 µM (inactive)"

[[record]]
compound = "CC(=O)OC1C2CCC3CC2C2(SCCS2)C31 (stereo unspecified)"
study_system = "MDA-N"
reported = "> 100 µM (inactive)"


Please find the next compound below.
Suppose we examine the compound NNS(=O)(=O)c1ccc(/C=C2\NC(=O)NC2=O)cc1 ; what GI50 value has been reported? > 100 µM (inactive)
